system: CAKI-1; assay: NCI tumour cell line growth inhibition, 48 h
Active and inactive are the calls of the source. No stated cut-off is given here; in the data, active = GI50 up to about 1.1 µM and inactive = higher.
parameterMeasured: GI50

Below, 6 molecules whose answers are already recorded.
Inquiry: Endpoint output: GI50 of CC1C(=O)C(C)C(c2ccco2)N(N=O)C1c1ccco1 (configuration not stated) . Value?
Reply text: > 100 µM (inactive)

Inquiry: Endpoint output: GI50 of "C[C@]12[C@@H]3CC[C@H]1[C@@H](OC(=O)Nc1cc([N+](=O)[O-])cc([N+](=O)[O-])c1)C(=O)N2CC3" . Value?
Reply text: > 100 µM (inactive)

Inquiry: Endpoint output: GI50 of "O=C1CN(/N=C/c2ccc(-c3ccc(F)cc3)o2)C(=O)N1" . Value?
Reply text: 58.6 µM (inactive)

Inquiry: Endpoint output: GI50 of O=C1C=CC(CC(=O)c2ccc3ccccc3c2)O1 (configuration not stated) . Value?
Reply text: 62.1 µM (inactive)

Inquiry: Endpoint output: GI50 of O=C1C2C(C(=O)N1c1ccccc1)C1(c3ccccc3)CCC2(C(=O)c2ccccc2)O1 (configuration not stated) . Value?
Reply text: > 10 µM (inactive)

Inquiry: Endpoint output: GI50 of CCCCCCCCCCCCCCCCCCOCC(O)COP(=O)(O)OCC1OC(n2ccc(N)nc2=O)C(O)C1O (configuration not stated) . Value?
Reply text: 23.1 µM (inactive)

Continue with the next molecule.
Inquiry: Endpoint output: GI50 of "O=C(Nc1ccc(Cl)cc1)NS(=O)(=O)c1ccc2c(c1)CCC2" . Value?
Reply text: 42.9 µM (inactive)

###

system: Hs-578T; experiment: NCI tumour cell line growth inhibition, 48 h
The source made the active and inactive calls. Rule as the data show it: active = GI50 up to about 1.1 µM and inactive = higher.
API: response.call in active, inactive

Past entries and their recorded results:
Inquiry: Identify the outcome logged in this assay for the compound shown: "N=c1nc(N)c2cc3c(N)nc(=N)c3cc12"
Reply text: inactive

Inquiry: Identify the outcome logged in this assay for the compound shown: "CC(=O)Nc1ccc(NNc2cc(=O)n(C)c(=O)[nH]2)cc1"
Reply text: inactive

Inquiry: Identify the outcome logged in this assay for the compound shown: CCP(=O)(CC)C(Cl)(Cl)C(O)C(Cl)(Cl)Cl (stereo not drawn)
Reply text: inactive

Inquiry: Identify the outcome logged in this assay for the compound shown: "[O-][n+]1onc(-c2ccccc2)c1CN1CCOCC1"
Reply text: inactive

Inquiry: Identify the outcome logged in this assay for the compound shown: "CC(C)NC(=O)OCc1c(COC(=O)NC(C)C)c(-c2ccc(Cl)c(Cl)c2)n2c1CCC2"
Reply text: inactive

Next:
Inquiry: Identify the outcome logged in this assay for the compound shown: "O=c1oc2ccc3ccccc3c2cc1-c1cn2c(n1)sc1ccccc12"
Reply text: inactive

Inquiry: Identify the outcome logged in this assay for the compound shown: "O=P(O)(O)C(N=C(Nc1ccccc1)Nc1ccccc1)P(=O)(O)O"
Reply text: inactive

Inquiry: Identify the outcome logged in this assay for the compound shown: "O=C(Nc1ccc(Cl)cc1)NS(=O)(=O)c1ccc2c(c1)CCC2"
Reply text: active

###

Listing: GI50 of selected compounds
tested on: OVCAR-4; test: NCI tumour cell line growth inhibition, 48 h
Active and inactive are the calls of the source. No stated cut-off is given here; in the data, active = GI50 up to about 1.1 µM and inactive = higher.

Below, 4 compounds whose answers are already recorded.
Inquiry: Endpoint output: GI50 of COC(=O)[C@]1(c2cc3ccccc3[nH]2)CC2CN(C(=O)OCc3ccccc3)C1CC2=O (stereo not given in full) . Value?
Reply text: 28.1 µM (inactive)

Inquiry: Endpoint output: GI50 of "CC1=C(C(=O)Nc2ccccc2C)C(c2ccc(C3C(C(=O)Nc4ccccc4C)=CNC=C3C(=O)Nc3ccccc3C)cc2)C(C(=O)Nc2ccccc2C)=C(C)N1" . Value?
Reply text: 14.7 µM (inactive)

Inquiry: Endpoint output: GI50 of COC1OC(COC(=O)NCCCCC(=O)C(F)(F)F)C(O)C(O)C1O (stereo not given) . Value?
Reply text: > 100 µM (inactive)

Inquiry: Endpoint output: GI50 of O=[N+]([O-])c1ccccc1[S+]([O-])c1ccccc1 (stereo not given) . Value?
Reply text: 49.2 µM (inactive)

Continue with the next compound.
Inquiry: Endpoint output: GI50 of "Nc1cccc(/C=C/C(=O)N2CCN(CCOC(c3ccccc3)c3ccccc3)CC2)c1" . Value?
Reply text: 12.4 µM (inactive)

###

tested on: SW-620; experiment: NCI tumour cell line growth inhibition, 48 h
Calls of active or inactive are those of the source. Cut-off read from the data, not from the text of the source: active = GI50 up to about 1.1 µM and inactive = higher.
parameterMeasured: GI50

Below, 5 compounds whose answers are already recorded.
Inquiry: Endpoint output: GI50 of "Cc1ccc(S(=O)(=O)CC(=O)CC(=O)C(=O)Nc2cccc(C(F)(F)F)c2)cc1" . Value?
Reply text: > 100 µM (inactive)

Inquiry: Endpoint output: GI50 of "CC(C)(C)c1cc(/C=C(\C#N)C2=NCCO2)cc(C(C)(C)C)c1O" . Value?
Reply text: 4.06 µM (inactive)

Inquiry: Endpoint output: GI50 of "Cc1nc(O)nc(O)c1/C=C/C(=O)O" . Value?
Reply text: > 1000 µM (inactive)

Inquiry: Endpoint output: GI50 of "Nc1nncs1" . Value?
Reply text: 1260 µM (inactive)

Inquiry: Endpoint output: GI50 of "O=C1C=C(NCC(c2ccccc2)c2ccccc2)C(=O)c2ncccc21" . Value?
Reply text: 1.83 µM (inactive)

Continue with the next compound.
Inquiry: Endpoint output: GI50 of "O=[N+]([O-])C(=C(Nc1ccccc1)Nc1ccccc1)C(Cl)=C(Cl)Cl" . Value?
Reply text: 14.5 µM (inactive)

###

tested on: MCF7; experiment: NCI tumour cell line growth inhibition, 48 h
Active and inactive are the calls of the source. Cut-off read from the data, not from the text of the source: active = GI50 up to about 1.1 µM and inactive = higher.
Listing: GI50 of selected molecules

Inquiry: Endpoint output: GI50 of "C[C@]12CC[C@H]3[C@@H](CC=C4C[C@@H](O)CC[C@@]43C)[C@@H]1C/C(=C\c1ccncc1)[C@@H]2O" . Value?
Reply text: 23 µM (inactive)

Inquiry: Endpoint output: GI50 of "c1ccc(CCN2CCCCCC2)nc1" . Value?
Reply text: > 100 µM (inactive)

Next:
Inquiry: Endpoint output: GI50 of COC1OC(COC(=O)NCCCCC(=O)C(F)(F)F)C(O)C(O)C1O (stereo not given) . Value?
Reply text: > 100 µM (inactive)

Inquiry: Endpoint output: GI50 of Cc1cn(C2OC(CO[Si](C)(C)C(C)(C)C)/C(=C\C#N)C2O[Si](C)(C)C(C)(C)C)c(=O)[nH]c1=O (stereo not given) . Value?
Reply text: 1.89 µM (inactive)

Inquiry: Endpoint output: GI50 of "CN(C)CCNc1nc2ccccc2c2c1CCCC2" . Value?
Reply text: 14.8 µM (inactive)

###

test system: HL-60; assay: NCI tumour cell line growth inhibition, 48 h
The source made the active and inactive calls. Rule as the data show it: active = GI50 up to about 1.1 µM and inactive = higher.
Listing: GI50 of selected molecules

Below, 2 molecules whose answers are already recorded.
Inquiry: Endpoint output: GI50 of "CN(C)CCCNC(=O)c1cc(NC(=O)c2cc(NC(=O)c3cc(NC(=O)CCCn4ccc(CO)c4CO)cn3C)cn2C)cn1C" . Value?
Reply text: 3.1 µM (inactive)

Inquiry: Endpoint output: GI50 of CCOC(=O)N1N=C(/C(C)=N/OC)C(C)[S+]1[O-] (stereo not drawn) . Value?
Reply text: > 100 µM (inactive)

Next:
Inquiry: Endpoint output: GI50 of O=C1C2C(C(=O)N1c1ccccc1)C1(c3ccccc3)CCC2(C(=O)c2ccccc2)O1 (stereo not drawn) . Value?
Reply text: > 10 µM (inactive)

###

tested on: Hs-578T; test: NCI tumour cell line growth inhibition, 48 h
The source made the active and inactive calls. Rule as the data show it: active = GI50 up to about 1.1 µM and inactive = higher. Peptide text beside a SMILES is read from it. * marks the point of attachment. OSu = O=C1CCC(=O)N1O*
parameterMeasured: GI50

Below, 3 molecules whose answers are already recorded.
Inquiry: Endpoint output: GI50 of CCCCCCCCCCCCCCCCCCOCC(O)COP(=O)(O)OCC1OC(n2ccc(N)nc2=O)C(O)C1O (stereo unspecified) . Value?
Reply text: 36.4 µM (inactive)

Inquiry: Endpoint output: GI50 of "c1ccc2c(c1)nc1n2CCNC1" . Value?
Reply text: > 100 µM (inactive)

Inquiry: Endpoint output: GI50 of "COc1ccccc1C(=O)N(C)c1ccc(Cl)c(C(=O)OC(C)C)c1" . Value?
Reply text: > 100 µM (inactive)

Next:
Inquiry: Endpoint output: GI50 of NCCCCC(NC(=O)C(N)Cc1ccc(O)cc1)C(=O)NC(Cc1ccc(O)cc1)C(=O)NC(CCCCN)C(=O)ON1C(=O)CCC1=O (stereo unspecified) (H-YKYK-OSu; configuration not given here) . Value?
Reply text: > 100 µM (inactive)

Inquiry: Endpoint output: GI50 of "CCNc1nnc(-c2ccccc2Nc2ccccc2-c2nnc(NCC)s2)s1" . Value?
Reply text: 12.3 µM (inactive)

Inquiry: Endpoint output: GI50 of "c1ccc(CN2CCN3CCN(CC2)CCN(Cc2ccccc2)CC3)cc1" . Value?
Reply text: 14.6 µM (inactive)
